System: Hepatitis C virus
assay_info: Antiviral activity against Hepatitis C virus H77c genotype 1a infected in human HuH7 cells after 3 days by FRET assay
Format: functional, organism-based, Hepacivirus hominis
experimental_context: genotype 1a H77, Huh-7, 72 h
property_measured: pEC50
Conceptually, pEC50 converts a concentration in mol/L into minus its log10.

**Q:** Give recorded pEC50 with Hepatitis C virus for the following compound: `CN(C)S(=O)(=O)NC(=O)c1ccc2c(C3CCCCC3)c3n(c2c1)CC(C(=O)N1CCOCC1)=Cc1ccccc1-3`
**A:** 6.92

Others:
**Q:** Value wanted: pEC50 (Hepatitis C virus) of entry `COc1ccc2c(c1)[C@@H]1C[C@]1(C(=O)N1C3CC1CN(C)C3)Cn1c-2c(C2CCCCC2)c2ccc(C(=O)NS(=O)(=O)N(C)C)cc21`
**A:** 8.22

**Q:** Next up: COc1ccc2c(c1)C1CC1(C(=O)N1CCN(C(=O)N(C)C)CC1)Cn1c-2c(C2CCCCC2)c2ccc(C(=O)NS(=O)(=O)N(C)C)cc21 (racemic)
**A:** 7.64

**Q:** Do the same for `COC[C@H]1CN(C(=O)[C@]23C[C@H]2c2cc(OC)ccc2-c2c(C4CCCCC4)c4ccc(C(=O)NS(=O)(=O)N(C)C)cc4n2C3)CCO1` please
**A:** 8.22

**Q:** Same again, this time with COc1ccc2c(c1)C1CC1(C(=O)N1C3CC1CN(Cc1ccccc1)C3)Cn1c-2c(C2CCCCC2)c2ccc(C(=O)NS(=O)(=O)N(C)C)cc21 (racemic)
**A:** 7.46

**Q:** Param item: COc1ccc2c(c1)C1CC1(C(=O)N1C3CCC1CNC3)Cn1c-2c(C2CCCCC2)c2ccc(C(=O)NS(=O)(=O)N(C)C)cc21 (racemic)
**A:** 7.85

**Q:** Please do the same for COc1ccc2c(c1)C1CC1(C(=O)N1CC(O)C1)Cn1c-2c(C2CCCCC2)c2ccc(C(=O)NS(=O)(=O)N(C)C)cc21 (racemic) as well.
**A:** 7.35

**Q:** Follow-up entry: `CN(C)S(=O)(=O)NC(=O)c1ccc2c(C3CCCCC3)c3n(c2c1)C[C@]1(C(=O)N2CCOCC2)C[C@@H]1c1ccccc1-3`
**A:** 6.59

**Q:** Now the compound `O=C(O)c1ccc2c(C3CCCCC3)c3n(c2c1)C[C@@]1(C(=O)N2CCOCC2)C[C@H]1c1ccccc1-3`
**A:** 7.39

**Q:** For COc1ccc2c(c1)C1CC1(C(=O)N1C[C@@H](C)N(C)[C@@H](C)C1)Cn1c-2c(C2CCCCC2)c2ccc(C(=O)NS(=O)(=O)N(C)C)cc21 (mixture of isomers) then?
**A:** 7.85

----------
assay_target: Cytochrome P450 3A4 (Homo sapiens)
Sequence (P08684 whole entry): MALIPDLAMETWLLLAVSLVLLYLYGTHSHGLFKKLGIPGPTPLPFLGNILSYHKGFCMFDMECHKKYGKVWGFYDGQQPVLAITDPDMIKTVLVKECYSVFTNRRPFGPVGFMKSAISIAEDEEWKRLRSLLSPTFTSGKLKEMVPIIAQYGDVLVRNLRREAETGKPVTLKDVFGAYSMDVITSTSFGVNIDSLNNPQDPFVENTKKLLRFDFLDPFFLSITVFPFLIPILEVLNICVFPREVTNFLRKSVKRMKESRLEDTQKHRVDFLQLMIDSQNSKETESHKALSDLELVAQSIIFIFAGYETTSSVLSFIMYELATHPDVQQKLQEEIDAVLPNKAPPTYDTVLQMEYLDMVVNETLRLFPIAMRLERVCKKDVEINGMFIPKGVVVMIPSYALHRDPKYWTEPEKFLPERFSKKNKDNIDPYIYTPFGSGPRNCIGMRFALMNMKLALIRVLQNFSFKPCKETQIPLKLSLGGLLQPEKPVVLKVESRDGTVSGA
pIC50: −log10 of the molar value.
property_measured: pIC50

**Q:** Name the reported pIC50 value associated with the molecule COc1ccc2c(c1)[C@@H]1C[C@]1(C(=O)N1[C@@H]3CC[C@H]1CN(C)C3)Cn1c-2c(C2CCCCC2)c2ccc(C(=O)NS(=O)(=O)N(C)C)cc21 [BECLABUVIR]
**A:** < 4.40

----------
Test system: Liver microsome
experimental_context: rat, microsomes
property_measured: Stability (%)
Write the number in % without appending the unit.

Please review the entries below; each comes with its answer.
**Q:** Provide value of Stability for this record tested with Liver microsome: COc1ccc2c(c1)C1CC1(C(=O)N1CC(O)C1)Cn1c-2c(C2CCCCC2)c2ccc(C(=O)NS(=O)(=O)N(C)C)cc21 (racemic)
**A:** 84

**Q:** Try this compound too: COc1ccc2c(c1)C1CC1(C(=O)N1C[C@@H](C)N[C@@H](C)C1)Cn1c-2c(C2CCCCC2)c2ccc(C(=O)NS(=O)(=O)N(C)C)cc21 (mixture of isomers)
**A:** 100

---
**Q:** Provide value of Stability for this record tested with Liver microsome: COc1ccc2c(c1)C1CC1(C(=O)N1C3CC1CN(Cc1ccccc1)C3)Cn1c-2c(C2CCCCC2)c2ccc(C(=O)NS(=O)(=O)N(C)C)cc21 (racemic)
**A:** 100
